- System: MDA-MB-231 breast
- Test: NCI tumour cell line growth inhibition, 48 h; in the data active = GI50 below about 0.43 µM; inactive = the rest
Response enum: True for active, False for inactive

Answered examples (2):
O=C(Nc1cccc(-n2cc(-c3ccncc3)c(-c3ccc(Cl)c(O)c3)n2)c1)Nc1cccc(C(F)(F)F)c1; False
O=C(NNC(=O)C1CCN(S(=O)(=O)c2ccc(-c3ccccc3)cc2)CC1)c1ccc(C(F)(F)F)cc1; False

// query // param item: O[C@H]1C=C2[C@H](C[C@@H]1O)CN1C[C@H]2c2cc3c(cc21)OCO3 ; yields the recorded call
// result False

// query Dear all, I need the recorded test outcome for O=C(C(Br)C(Br)c1ccccc1)C(Br)C(Br)c1ccccc1 (centres undefined) , thank you.
// result False

// query How was CCN(CC)CCn1c(N)c(-c2nc3ccccc3n2C)c2nc(C#N)c(C#N)nc21 classified in this test?
// result True

// query Tell me the recorded outcome of this test for NS(=O)(=O)c1ccc(Nc2ncc(-c3ccccc3)o2)cc1 .
// result False

// query Could you please tell me the result logged for CC1=C(C(=O)Nc2ccc(Cl)c(Cl)c2)C(c2ccccc2Cl)NC(=S)N1 (centres undefined) in this assay?
// result False

----------
Kindly state TGI for each of the entries shown.
- System: HCC-2998 colon
- Test: NCI tumour cell line growth inhibition, 48 h
Where a SMILES comes first, the peptide text is derived from it. The star is where a group is joined. CH2Cl = ClC*
Numbers only, in µM.

Cc1ccc(N=NC(=O)NNc2ccc(C)c([N+](=O)[O-])c2)cc1[N+](=O)[O-]; 33
CCCCC/C=C/C(=O)CCc1ccc(O)c(OC)c1; 30.7
COC(=O)[C@@H]1CCCN1C(=O)[C@@H]1CCCN1C(=O)[C@H](Cc1ccccc1)NC(=S)Nc1cc(C(F)(F)F)cc(C(F)(F)F)c1; 7.06
COc1ccc(NC(=O)C(=O)NO)c(OC)c1; 35.8
O=C(C(Br)C(Br)c1ccccc1)C(Br)C(Br)c1ccccc1 (configuration not stated); 3.52

Hello, I would appreciate it if you could give TGI for each entry below.
1. CCN(CC)CCCN1C(=O)c2c(c(C)c3c(oc4ccc(O)cc43)c2C)C1=O
2. CC(=O)NC(CC(C)C)C(=O)NC(Cc1ccccc1)C(=O)CCl (stereo not drawn) (Ac-Leu-Phe-CH2Cl; configuration not given here)
3. C=C(C)[C@@H]1CC[C@]2(COC(C)=O)CC[C@]3(C)[C@H](CC[C@@H]4[C@@]5(C)CCCN(C(C)=O)C(C)(C)[C@@H]5CC[C@]43C)[C@@H]12
4. O[C@H]1C=C2[C@H](C[C@@H]1O)CN1C[C@H]2c2cc3c(cc21)OCO3
5. CN(C)c1ccc(O)c2c1CC1CC3C(N(C)C)C(=O)C(C(N)=O)=C(O)C3(O)C(=O)C1=C2O (configuration not stated)
6. Cc1nn(-c2ccccc2)c(-n2ccnc2)c1/C=N/Nc1nc(-c2ccc(Cl)c(Cl)c2)cs1
7. O=C1c2ccc3c4c(ccc(c24)C(=O)N1CCCNCc1ccccc1F)C(=O)N(CCCNCc1ccccc1F)C3=O
8. CCCn1c2c(c3ccccc3c1=O)C(=O)c1cc3c(cc1-2)OCO3

// result
1: 7.39; 2: 30.4; 3: 3.16; 4: 56; 5: 39.1; 6: 46.8; 7: 0.312; 8: 99.6

// each molecule listed below needs its TGI
1. C[C@]12CC[C@@H]3c4ccc(O)cc4CC[C@H]3[C@@H]1CC[C@@H]2OC(=O)CCC1CCCC1
2. COC(=O)c1cc2cc(-c3ccc(OC)cc3)cnc2[nH]1

// result
37.8
18.9

----------
- System: HT29 colon
- Test: NCI tumour cell line growth inhibition, 48 h
Measurement kind: TGI

Solved cases below.
COc1ccc(-c2nc3ccc([N+](=O)[O-])cc3c(=O)[nH]2)cc1; > 100 µM
CCSc1nc(-c2ccc(OC)cc2)c(C#N)c(=O)n1C1OCC(OC(C)=O)C(OC(C)=O)C1OC(C)=O (stereo not given); > 100 µM
Cc1ccc(N=NC(=O)NNc2ccc(C)c([N+](=O)[O-])c2)cc1[N+](=O)[O-]; > 100 µM
NS(=O)(=O)N(c1cc(C(F)(F)F)cc(C(F)(F)F)c1)C1CCN(Cc2ccc(C(F)(F)F)cc2)CC1; 10.2 µM

Here is another compound to look at.
// query Provide one value: measured TGI of CCOC(=O)Cn1c(=O)n(C)c(=O)c2[nH]cnc21
// result > 100 µM

----------
- Tested on: MCF7 breast
- Test: NCI tumour cell line growth inhibition, 48 h
Measurement kind: TGI

CCCCC/C=C/C(=O)CCc1ccc(O)c(OC)c1; 15.8 µM
COC(=O)[C@@H]1CCCN1C(=O)[C@@H]1CCCN1C(=O)[C@H](Cc1ccccc1)NC(=S)Nc1cc(C(F)(F)F)cc(C(F)(F)F)c1; > 100 µM
CC(=O)/C=C/CCC(=O)/C=C/C(=O)OC(CCC(=O)/C=C/C(=O)O)CC(C)=O (centres undefined); > 100 µM

// query Answer with the recorded TGI of CO[C@]12CC(=O)C3(C(C[C@H]4CC5CCC6=CC(=O)CC[C@]6(OC(C)=O)C5C[C@@]43C)C1)C1C[C@H]3[C@@H]4CCC5=CC(=O)CC[C@]5(OC(C)=O)[C@H]4CC[C@]3(C)C12 (some centres undefined) only.
// result > 100 µM

----------
- System: NCI-H23 lung
- Test: NCI tumour cell line growth inhibition, 48 h
Measurement kind: TGI

Worked cases, answers included:
Fc1cc(-c2cc(-c3ccccc3)n[nH]2)c(Cl)cc1Cl; > 100 µM
CC1CN=C(N(C)C(=O)Nc2ccc(Cl)cc2)S1 (stereo unspecified); > 100 µM
Clc1cccc(Cl)c1C(Nc1nncs1)Nc1nncs1; > 100 µM

Give TGI for each of the items listed below.
1. CN(CCO)C1CCN(c2ccc(Nc3ncc4c5ccnc(F)c5n(C5CCCC5)c4n3)nc2)CC1
2. COc1c(-c2nc3nc(N4CCN(C)CC4)ccc3[nH]2)cc(OC)c2c1nc(CO)n2C
3. CCSc1nc(-c2ccc(OC)cc2)c(C#N)c(=O)n1C1OCC(OC(C)=O)C(OC(C)=O)C1OC(C)=O (stereo unspecified)
4. OCCCNCC(O)c1ccc(OCc2ccccc2)c(OCc2ccccc2)c1 (stereo unspecified)
5. C=C1C[C@]23CC[C@@H]4C(CO)(CO)CC(=O)C[C@]4(C)[C@@H]2CC[C@H]1C3
6. CN(CCN(C)CCN(C)C(=O)Cc1ccc(Cl)c(Cl)c1)CCN1CCCC1
7. Cc1ccc2c(=O)cc(-c3cccc(Cl)c3)[nH]c2n1
8. O[C@H]1C=C2[C@H](C[C@@H]1O)CN1C[C@H]2c2cc3c(cc21)OCO3

// result
["32.3 µM", "> 100 µM", "> 100 µM", "33.3 µM", "> 100 µM", "> 100 µM", "> 31.6 µM", "96.6 µM"]

----------
- Test system: HT29 colon
- Test: NCI tumour cell line growth inhibition, 48 h
Measurement kind: TGI

C/C=C(/C(=C/C)c1ccc(O)cc1)c1ccc(O)cc1; 12.6 µM
C=CC(O)C#Cc1cnc(OC)nc1OC (stereo unspecified); > 100 µM
CC(NC(=O)CNP(=O)(c1ccccc1)c1ccccc1)C(=O)NC(Cc1ccccc1)C(=O)OCc1ccccc1 (stereo unspecified); > 100 µM
O=C(O)CCC(=O)C(=O)O; > 100 µM

For every listed record, write down its TGI.
1. O=C(Nc1cccc(-n2cc(-c3ccncc3)c(-c3ccc(Cl)c(O)c3)n2)c1)Nc1cccc(C(F)(F)F)c1
2. CN(CCO)C1CCN(c2ccc(Nc3ncc4c5ccnc(F)c5n(C5CCCC5)c4n3)nc2)CC1
3. O=c1cc(NNc2ccc3ccccc3c2)[nH]c(=S)[nH]1
4. O=C(NC1CCCCC1)NS(=O)(=O)c1ccc(-n2nc3c(c2-c2cccs2)Cc2ccccc2-3)cc1
5. Cc1cc([N+](=O)[O-])c(C)c2c1[nH]c1ccc(O)cc12
6. CCCCCCCCNC(=O)C1=C(C)NC(C)=C(C(=O)NCCCCCCCC)C1

// result
> 32.5 µM
4.45 µM
30 µM
> 100 µM
> 100 µM
> 100 µM

For each listed entry, give its TGI.
1. CC1=C(C#N)C2C(=C(C)N1)C(N)=Nc1ccccc12 (stereo unspecified)
2. C[Si]1(C)C(c2ccccc2)=CC2C(c3ccccc3)(c3ccccc3)OC21c1ccccc1 (stereo unspecified)
3. COC(=O)[C@](NC(=O)OCc1ccccc1)([C@@H](C)Sc1ccc(C)cc1)C(F)(F)F
4. COC(=O)c1nc(-c2ccc(Cl)c(Cl)c2)nc2ccc(Cl)cc12
5. Cc1ccc(-c2c(C#N)c(N)[nH]c(=S)c2C#N)cc1
6. CS(=O)(=O)Nc1ccc(Nc2cc[nH]c3ccc4nccc4c23)cc1
7. O=NNc1ccc(S(=O)c2ccccc2)cn1 (stereo unspecified)
8. CO[C@]12CC(=O)C3(C(C[C@H]4CC5CCC6=CC(=O)CC[C@]6(OC(C)=O)C5C[C@@]43C)C1)C1C[C@H]3[C@@H]4CCC5=CC(=O)CC[C@]5(OC(C)=O)[C@H]4CC[C@]3(C)C12 (stereo partly specified)

// result
1: > 100 µM; 2: > 100 µM; 3: > 100 µM; 4: > 100 µM; 5: > 100 µM; 6: 48.4 µM; 7: > 100 µM; 8: > 100 µM

Record TGI per entry; entries follow.
1. C=C1[C@@H](OC(C)=O)[C@H]2[C@@H](OC(C)=O)[C@@](C)(OC(C)=O)C[C@]2(OC(C)=O)C(=O)[C@@H](C)/C=C/C(C)(C)C(=O)C[C@H]1OC(C)=O
2. COC(=O)C1CCC(=O)C(Sc2ccccc2)C1 (stereo unspecified)
3. COc1ccc(NCC#N)cc1
4. C[C@H](CCC(=O)O)[C@H]1CC[C@H]2[C@@H]3[C@@H](O)C[C@@H]4C[C@H](O)CC[C@]4(C)[C@H]3CC[C@]12C
5. CCN(CC)c1ccc2cc(C(=O)Nc3ccccc3OC)c(=N)oc2c1
6. CN1CCN(C(=S)N(C(=O)c2cccs2)c2ccccc2)CC1
7. COc1cc(-c2cncn2-c2ccc(-c3nc4ccc(F)cc4s3)cc2)ccc1F
8. Cc1ccc(NS(=O)(=O)c2ccc(-c3cnc(C4CC4)o3)cc2)cc1C

// result
1. > 100 µM
2. > 100 µM
3. > 100 µM
4. > 100 µM
5. > 100 µM
6. > 100 µM
7. > 100 µM
8. 1.57 µM

Go through the items and report each one's TGI.
1. CCC(/C=C(C)/C=C/C(=O)c1c(O)c(-c2ccc(O)cc2)c[nH]c1=O)CO (stereo unspecified)
2. CN1C(c2ccccc2)CC(=NOCc2ccccc2)CC1c1ccccc1 (stereo unspecified)
3. CC1CN=C(N(C)C(=O)Nc2ccc(Cl)cc2)S1 (stereo unspecified)
4. COc1cccc(NC(=O)CC(=O)Nc2cccc(OC)c2)c1
5. COc1cc([C@@H]2c3cc4c(cc3[C@@H](NC(=O)c3cccc(N)c3)C3COC(=O)[C@@H]32)OCO4)cc(OC)c1O (stereo partly specified)
6. Cc1ccc2nc3n(c2c1)C(c1c(F)cccc1F)SC3 (stereo unspecified)
7. Cc1nc(C(N)=S)sc1C(=O)CC(=O)C(=O)Nc1c(C(C)C)cccc1C(C)C
8. CC(=O)NC(C)(C)C1CC=C(C)/C(=N\O)C1 (stereo unspecified)

// result
29.2 µM
62.2 µM
> 100 µM
> 100 µM
21.3 µM
> 100 µM
> 100 µM
> 100 µM

Please look at the items below and tell me TGI for each one, in order.
1. Cc1c(C(=O)C(=O)c2ccccc2)c(C)c(C(=O)C(=O)c2ccccc2)c(C)c1C(=O)C(=O)c1ccccc1
2. CN(N=O)C(=O)N(N)CCCCC(NC(=O)OCc1ccccc1)C(=O)OCc1ccccc1 (stereo unspecified)
3. CCCCC/C=C/C(=O)CCc1ccc(O)c(OC)c1
4. Cc1ccc(Nc2nc3c(s2)C(=O)c2ccccc2C3=O)cc1
5. Cn1c([N+](=O)[O-])cnc1CN1CCN(CCO)CC1
6. CC1(C)C[C@H]2[C@H](O)C(CO)=C3C(=O)[C@@H](O)[C@]3(C)[C@H]2C1
7. CC[C@@]1(O)C(=O)OCc2c1cc1n(c2=O)Cc2cc3c([N+](=O)[O-])c(OC)ccc3nc2-1

// result
1. > 100 µM
2. > 100 µM
3. 4.94 µM
4. 11.2 µM
5. > 100 µM
6. > 100 µM
7. > 100 µM

Reference source: PubChem BioAssay (NCI)
